Experiment: Selectivity index, ratio of IC50 for cytotoxic activity against mouse J774 cells to IC50 for antileishmanial activity against Leishmania amazonensis amastigotes
Format: toxicity, cell-based
Conditions: read-out: Ratio IC50
METRIC_NAME: selectivity ratio

- CC(C)Oc1cc(NC(=N)c2ccccn2)ccc1-c1ccc(-c2ccccc2)s1: 3
- COc1ccc(-n2cc(-c3ccc(NC(=N)c4ccccn4)cc3OC(C)C)nn2)cc1: 5.5
- CC(C)Oc1cc(NC(=N)c2ncccn2)ccc1-c1ccc(-c2ccccc2)o1: 18
- CC(C)Oc1cc(NC(=N)c2ccccn2)ccc1-c1cnc(-c2ccccc2)o1: 41

* * *

Experiment: Drug level in BALB/c mouse spleen at 40 mg/kg, po administered as single dose after 1 hr
Type: ADME, organism-based
Settings: read-out: Drug uptake
METRIC_NAME: concentration at 1 h

• CC(C)Oc1cc(NC(=N)c2ccccn2)ccc1-c1ccc(-c2ccccc2)o1.CS(=O)(=O)O = 4.7 µM
